# Test system: THRa homodimer (NR concentration 90 nM)
# ASSAY METHOD TEXT: PBM binding z-score (relative to random genomic background probes); higher = stronger binding; sequences stand for … in GC…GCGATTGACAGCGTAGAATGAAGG
Recorded PBM binding z-score by entry
I only need the number, thanks.

Examples from the recorded data:
AGTCAAAGTTCGCTAGGTAACGTAAGATTCAGCT -0.0669
TCATATAGGTAAAAGGTAAAAGTCGGTGTGGTAA 0.222
AGAATGAGGTTAAGATCAGGGCAACAGAATACAT 1.44

// query # PBM binding z-score lookup, item "ATATGTAGGGTAAGGGTCATTCAGGTTGGTTCGC"
// result 2.68

// query # PBM binding z-score lookup, item "TTATATAGGTAATACAGGTGAAAGTCGGCATCTA"
// result 0.46

// query # PBM binding z-score lookup, item "GCTTGCGGGTCAAAGGTTATAGCATGAATAGAAT"
// result -0.22
